Reported PK activity (%) values for a set of compounds
- assaySystem: WIL-FL* (Homo sapiens, UniProt P01721, K101C, form not given)
- methodDescription: Protease-coupled fluorescence polarization (PCFP) assay with proteinase K
- recordedConditions: secondary screen, mean ± sd, n=3; 6.75 μM compound; FP retention after 24 h at 22° C., normalized to high and low controls
measuredQuantity: PK activity (%)

1) CCN(CC)c1ccc2ccc(=O)oc2c1 [Compound 9] | 37.9
2) CCOC(=O)Cc1c(C)c2ccc(N(CC)CC)cc2oc1=O [Compound 2] | 37.8
3) CC(C=NNc1ccc(S(N)(=O)=O)cc1[N+](=O)[O-])c1ccccc1 (centres unmarked) [Compound 6] | 60.8
4) CC(C)CC1NC(=O)N(CC(=O)Nc2ccc(C(F)(F)F)cc2)C1=O (racemic) [Compound 8] | 48.0
5) CC1CCCCC12NC(=O)N(CC(=O)Nc1ccc(C(F)(F)F)cc1)C2=O (centres unmarked) [Compound 7] | 29.3
6) CN(C)c1ccc(C2OCC(Cl)([N+](=O)O)CO2)cc1 (centres unmarked) [Compound 16] | 50.5
7) CCN(CC)c1ccc2c(C)c(CN3CCOCC3)c(=O)oc2c1 [Compound 12] | 37.2
8) CCN(CC)c1ccc2c(CN3CCOCC3)cc(=O)oc2c1 [Compound 13] | 4.21
9) CC(Oc1ccc2ccc(=O)oc2c1)c1ccccc1 (centres unmarked) [Compound 15] | 34.2
10) CCN(CC)c1ccc2c(C)c(I)c(=O)oc2c1 [Compound 11] | 58.7
11) Cc1cc(=O)oc2cc(OC(C)c3ccccc3)ccc12 (centres unmarked) [Compound 3] | 43.3

* * *

- assaySystem: UniProt P01721
- methodDescription: Unlabeled LC Protease Sensitivity Assay (proteinase K)
- Assay type: biochemical
- recordedConditions: small molecule 10 μM, WIL-FL 5 μM, proteinase K 50 nM, 2 hours at 37° C.
measuredQuantity: Protection (fold protection of LC from protease)

1) CCN(CC)c1ccc2c(C)c(CCN3C(=O)NC4(CCN(C(=O)c5ccc[nH]c5=O)C4)C3=O)c(=O)oc2c1 (stereo not shown) | B (3 ≤ B < 0.6)
2) C=CCN(CC=C)c1ccc2c(C)cc(=O)oc2c1 | A (A < 0.3))
3) CCN(CC)c1ccc2c(C)c(CCO)c(=O)oc2c1 | A (A < 0.3))
4) CCN(CC)c1ccc2c(C)c(CCN3C(=O)NC4(CCN(C(=O)c5ccc[nH]c5=O)CC4)C3=O)c(=O)oc2c1 | A (A < 0.3))
5) CCN(CC)c1ccc2c(C)c(CCN3C(=O)NC4(CCN(c5ncccn5)CC4)C3=O)c(=O)oc2c1 | C (C ≥ 0.6)
6) CCCN(C)c1ccc2c(C)cc(=O)oc2c1 | A (A < 0.3))
7) Cc1cc(=O)oc2cc(C#N)ccc12 | A (A < 0.3))
8) CCN(CC)c1ccc2c(C)c(CCN3C(=O)NC4(CCN(c5ccc(C(F)(F)F)cn5)CC4)C3=O)c(=O)oc2c1 | A (A < 0.3))
9) Cc1cc(=O)oc2cc(C(=O)NCCc3ccc(O)cc3)ccc12 | A (A < 0.3))
10) CC(C)CC1NC(=O)N(CC(=O)Nc2ccc(C(F)(F)F)cc2)C1=O (single isomer, unassigned) [Compound 22] | A (A < 0.3))
11) CCN(CC)c1ccc2c(C)c(CCN3C(=O)NC4(CCN(S(=O)(=O)c5ccccc5)C4)C3=O)c(=O)oc2c1 (stereo not shown) | B (3 ≤ B < 0.6)
12) CCN(CC)c1ccc2c(C)c(CCOC(=O)NCc3ncccn3)c(=O)oc2c1 | B (3 ≤ B < 0.6)
13) CCN(CC)c1ccc2c(C)cc(=O)n(C)c2c1 | A (A < 0.3))
14) Cc1ccccc1C(C)Oc1ccc2c(C)cc(=O)oc2c1 (stereo not shown) | A (A < 0.3))
15) CCC(CC)c1ccc2c(C)cc(=O)oc2c1 | A (A < 0.3))
16) CCN(CC)c1ccc2c(C)c(CCN3C(=O)NC4(CCN(c5nccc(C#N)n5)CC4)C3=O)c(=O)oc2c1 | C (C ≥ 0.6)
17) CCN(CC)c1ccc2c(C)c(CCN3CC4(CCN(c5ncccn5)CC4)NC3=O)c(=O)oc2c1 | C (C ≥ 0.6)
18) CCN(CC)c1ccc2c(C)c(CCNC(=O)NCc3cccc4ccccc34)c(=O)oc2c1 | A (A < 0.3))
19) CCN(CC)c1ccc2c(C)c(CCN3C(=O)CNC3=O)c(=O)oc2c1 | B (3 ≤ B < 0.6)
20) Cc1cc(=O)oc2cc(C(=O)NCc3ccc(O)cc3)ccc12 | A (A < 0.3))
21) Cc1cc(=O)oc2cc(NC(C)c3ccccc3)ccc12 (stereo not shown) | A (A < 0.3))
22) CCN(CC)c1ccc2c(C)c(CCOC(=O)NCc3cccc(-c4ncccn4)c3)c(=O)oc2c1 | C (C ≥ 0.6)
23) C#CCN(CCC=C)c1ccc2c(C)cc(=O)oc2c1 | A (A < 0.3))
24) C=CCNc1ccc2c(C)cc(=O)oc2c1 | A (A < 0.3))
25) CCN(CC)c1ccc2c(C)c(CC(=O)NCCN(C)C)c(=O)oc2c1 | A (A < 0.3))
26) CCNc1ccc2c(C)cc(=O)oc2c1 [Compound 270, 7-(ethylamino)-4-methyl-2H-chromen-2-one] | A (A < 0.3))
27) CCCN(CCC)c1ccc2c(C)cc(=O)oc2c1 | A (A < 0.3))
28) CCN(CC)c1ccc2c(C)c(CCNC(=O)NCc3ccc4ccccc4n3)c(=O)oc2c1 | B (3 ≤ B < 0.6)
29) CCN(CC)c1ccc2c(C)c(CCNC(=O)NCc3cnc4ccccc4c3)c(=O)oc2c1 | B (3 ≤ B < 0.6)
30) CCN(CC)c1ccc2c(C)c(CCOC(=O)NC)c(=O)oc2c1 | A (A < 0.3))
31) CCN(CC)c1ccc2c(C)c(CCNC(=O)NCc3cccc(CCC(=O)O)c3)c(=O)oc2c1 | B (3 ≤ B < 0.6)
32) CCN(CC)c1ccc2c(C)c(CCOC(=O)NCc3cccc(-c4cccnn4)c3)c(=O)oc2c1 | C (C ≥ 0.6)
33) CCN(CC)c1ccc2c(C)c(CC(=O)NCCCCc3ccccc3)c(=O)oc2c1 | A (A < 0.3))
34) CCN(CC)c1ccc2c(C)c(CCOC(=O)N3CCN(c4cnccn4)CC3)c(=O)oc2c1 | A (A < 0.3))

* * *

- assaySystem: WIL-FL (Homo sapiens, UniProt P01721)
- methodDescription: Unlabeled LC Protease Sensitivity Assay (proteinase K)
- Format: biochemical
- recordedConditions: small molecule 10 μM, WIL-FL 5 μM, proteinase K 50 nM, 2 hours at 37° C.
measuredQuantity: Protection (fold protection of LC from protease)

1) CCN(CC)c1ccc2c(C)c(CCN3C(=O)NC4(CCN(c5nccn6ccnc56)CC4)C3=O)c(=O)oc2c1 | C (C ≥ 0.6)
2) CCN(CC)c1ccc2c(C)c(CCN3C(=O)NC4(CCN(c5nccn6cnnc56)CC4)C3=O)c(=O)oc2c1 | C (C ≥ 0.6)
3) CCN(CC)c1ccc2c(C)c(CCNC(=O)NCc3ccc4[nH]ccc4c3)c(=O)oc2c1 | A (A < 0.3))
4) CCN(CC)c1ccc2c(C)c(CCC(=O)NCCc3ccccc3F)c(=O)oc2c1 | A (A < 0.3))
5) CCN(CC)c1ccc(NC(=O)CN2C(=O)CNC2=O)cc1 | A (A < 0.3))
6) CCOC(=O)N1CCC(NC(=O)OCCc2c(C)c3ccc(N(CC)CC)cc3oc2=O)CC1 | B (3 ≤ B < 0.6)
7) CCN(CC)c1ccc2c(C)c(CCNC(=O)NCc3cccc(-c4ccccc4)c3)c(=O)oc2c1 | B (3 ≤ B < 0.6)
8) CCN(CC)c1ccc2c(C)c(CCOC(=O)NCc3cccc(-c4nc[nH]c4C)c3)c(=O)oc2c1 | C (C ≥ 0.6)
9) CCN(CC)c1ccc2c(C)c(CC(=O)O)c(=O)oc2c1 | A (A < 0.3))
10) CCN(CC)c1ccc2c(C)c(CCNC(=O)NCc3ccncn3)c(=O)oc2c1 | A (A < 0.3))
11) CCN(CC)c1ccc2c(C)c(CCOC(=O)NCc3ccc(C(F)(F)F)nc3)c(=O)oc2c1 | A (A < 0.3))
12) CCN(CC)c1ccc2c(C)c(CCNC(=O)NCc3ccc4c(=O)[nH]ccc4c3)c(=O)oc2c1 | B (3 ≤ B < 0.6)
13) CCN(CC)c1ccc2c(C)c(CCN3C(=O)NC4(CCN(c5ncc(C#N)cn5)CC4)C3=O)c(=O)oc2c1 | A (A < 0.3))
14) CCN(CC)c1ccc2c(C)c(CCN3C(=O)NC4(CCN(S(=O)(=O)c5ccccc5)CC4)C3=O)c(=O)oc2c1 | A (A < 0.3))
15) CCN(CC)c1ccc2c(C)c(CCOC(=O)N3CCN(c4nn[nH]n4)CC3)c(=O)oc2c1 | A (A < 0.3))
16) C#CCNC(=O)c1ccc2c(C)cc(=O)oc2c1 | A (A < 0.3))
17) CCCNc1ccc2c(C)cc(=O)oc2c1 | A (A < 0.3))
18) Cc1cc(=O)oc2cc(C(F)(F)F)ccc12 | A (A < 0.3))
19) C=CCCNc1ccc2c(C)cc(=O)oc2c1 | A (A < 0.3))
20) CCN(CC)c1ccc2c(C)c(CCNC(=O)NCc3ccnc4ccccc34)c(=O)oc2c1 | A (A < 0.3))
21) CCN(CC)c1ccc2c(C)c(CC(=O)NCCCN(C)C)c(=O)oc2c1 | A (A < 0.3))
22) CCN(CC)c1ccc2c(C)c(CCOC(=O)NCc3cncc(-c4ccc[nH]c4=O)c3)c(=O)oc2c1 | A (A < 0.3))
23) CCN(CC)c1ccc2c(C)c(CCOC(=O)NCCc3ccccc3)c(=O)oc2c1 | A (A < 0.3))
